Value source: patent US20220177587A1

Biological target: huCTLA4 (Homo sapiens, UniProt P16410)
Sequence (P16410 36-223): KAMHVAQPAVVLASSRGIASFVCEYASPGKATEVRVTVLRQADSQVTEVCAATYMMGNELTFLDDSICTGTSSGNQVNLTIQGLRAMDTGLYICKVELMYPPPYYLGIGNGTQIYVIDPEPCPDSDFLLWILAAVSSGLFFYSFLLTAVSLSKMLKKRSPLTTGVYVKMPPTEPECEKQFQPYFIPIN
Assay: Flow binding to CHO cells stably expressing CTLA4
Set-up: huCTLA4 and huPD-L1, full-length mammalian surface expression constructs were generated; expressed in transfected cells; host or cells: CHO cells, lentiviral transduction, sorted to >98% purity
Conditions: Table E10; 33.3 nM; CHO cells stably expressing CTLA4
MEASUREMENT_NAME: CTLA4 MFI at 33.3 nM

{"MOLECULE": "E35D/M47V (protein) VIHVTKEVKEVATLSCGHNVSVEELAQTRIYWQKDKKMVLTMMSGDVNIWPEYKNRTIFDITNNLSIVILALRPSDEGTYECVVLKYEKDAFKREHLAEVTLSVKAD", "MEASUREMENT_NAME": "CTLA4 MFI at 33.3 nM", "OBSERVED_MEASUREMENT": 20893}
{"MOLECULE": "M47I/A71G (protein) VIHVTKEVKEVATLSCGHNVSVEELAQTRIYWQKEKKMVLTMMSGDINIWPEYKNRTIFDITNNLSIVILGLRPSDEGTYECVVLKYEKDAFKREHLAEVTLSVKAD", "MEASUREMENT_NAME": "CTLA4 MFI at 33.3 nM", "OBSERVED_MEASUREMENT": 27768}
